target: neutrophil elastase (Homo sapiens (Human)); assay: Human Neutrophil Elastase Assay; settings: substrate MeOSuc-Ala-Ala-Pro-Val-AMC
Sequence (P08246 30-247): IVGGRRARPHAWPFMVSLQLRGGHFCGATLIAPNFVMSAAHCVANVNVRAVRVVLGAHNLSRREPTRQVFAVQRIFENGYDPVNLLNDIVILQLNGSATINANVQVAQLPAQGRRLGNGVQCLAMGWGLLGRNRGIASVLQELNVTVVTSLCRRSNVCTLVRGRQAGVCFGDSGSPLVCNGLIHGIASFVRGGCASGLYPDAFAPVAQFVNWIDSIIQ
pIC50: −log10 of the molar value.
OBSERVATION_TYPE: pIC50

Please review the following examples before continuing.
- CC(=O)C1=C(C)N(c2cccc(C(F)(F)F)c2)C(=O)N(C)C1c1ccc(C#N)cc1C(=O)N1CC(O)C1 (stereo not drawn) [Example 1.12]: > 9.00
- CC(=O)C1=C(C)N(c2cccc(C(F)(F)F)c2)C(=O)N(C)C1c1ccc(C#N)cc1C(=O)N(C)Cc1cnn(C)c1 (stereo not drawn) [Example 1.30]: > 9.00

// next entry
// map CCOC(=O)C1=C(C)N(c2cccc(C(F)(F)F)c2)C(=O)N(C)C1c1ccc(C#N)cc1C1=COCC1 (stereo not drawn) [Example 14.4] to recorded pIC50 (system: neutrophil elastase (Homo sapiens (Human))) 8.72
